Consider the following compounds and their measured RAM network inhibition readings.
- assay_explanation: RAM signaling pathway blockade in yeast – S. cerevisiae, Pdr1DBD-CYC8 efflux-inhibited sensitized strain, primary screen (AID 1298);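 note: 0% = DMSO untreated cells without growth and 100% = 10 µM 1-NA-PP1 full growth; higher means more yeast growth rescued from 5-FOA killing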
- particulars: S. cerevisiae cbk1-as DSE1-URA3 strain, 5-FOA growth OD615, 2 d; at 50 µM; active compounds read high
The source made the active and inactive calls.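 Rule for the calls: active = RAM network inhibition above 8.4% in each of two replicates, 3 SD over the compound average; inconclusive = above 8.4% inhibition in only one replicate; inactive = 8.4% inhibition or less in each replicate.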
recorded_endpoint: RAM network inhibition

INSERT INTO assay_data (compound, measured) VALUES
  ('O=C(O)c1cc2nc(C3CC3)cc(C(F)(F)F)n2n1', '-2.13% (inactive)'),
  ('Cn1c(=O)oc2cc(S(=O)(=O)N3CCc4ccccc4C3)ccc21', '5.77% (inactive)'),
  ('O=C(NC1CCN(C(=O)N2c3ccccc3Sc3ccccc32)CC1)c1ccco1', '4.1% (inactive)'),
  ('COc1ccc(CNC(=O)c2onc(C)c2Cl)cc1', '4.91% (inactive)'),
  ('Cc1ccc(S(=O)(=O)N2C3C=CC(C3)C2C(=O)O)cc1 (stereo not given)', '1.2% (inactive)'),
  ('Cc1ccc(NC(=O)CCNS(=O)(=O)c2cccc3nonc23)cc1', '4.98% (inactive)'),
  ('COc1ccc(Cl)cc1NC(=O)c1cnc2sccn2c1=O', '6.59% (inactive)'),
  ('O=C(CSc1nnc(-c2ccccc2)o1)Nc1ccccc1F', '8.53% (inactive)'),
  ('Cc1sc2nc(SCC(=O)NCc3ccco3)[nH]c(=O)c2c1C', '5.12% (inactive)'),
  ('COc1cc(CN2CCN(CCOCCO)CC2)cc(OC)c1OC', '4.96% (inactive)'),
  ('NC(=O)C1CCN(C(=O)c2ccc(CS(=O)(=O)c3c(Cl)cccc3Cl)o2)CC1', '1.38% (inactive)'),
  ('NC(=O)CSc1ncc(-c2ccccc2)[nH]1', '4.43% (inactive)'),
  ('CCOc1ccc(CC(=O)Nc2c(C(N)=O)oc3ccc(Br)cc23)cc1OCC', '0.56% (inactive)'),
  ('N#CC1=C2SCN(c3ccc(F)cc3)CN2C(=O)CC1c1cccc(F)c1 (stereo not given)', '7.08% (inactive)'),
  ('COc1ccc(CC2CCOC2=O)cc1 (stereo not given)', '-0.09% (inactive)');
